We begin with a simple list: items and their reported refractive index.
Test: refractive index (Na D-line) (dimensionless)
Conditions: 333.15 K; 101.33 kPa; Liquid; Standard Abbe refractometry
TEST_READOUT: refractive index

CCCCCC(=O)[O-].CCCCCC[NH+](CCCCCC)CCCCCC [trihexylammonium hexanoate]; 1.4278
CCCCCCCC(=O)[O-].CCCCCC[NH+](CCCCCC)CCCCCC [trihexylammonium octanoate]; 1.4299
CCCC(=O)[O-].CCCCCCCC[NH+](CCCCCCCC)CCCCCCCC [trioctylammonium butanoate]; 1.4319
CCCCCCCC(=O)[O-].CCCCCCCC[NH+](CCCCCCCC)CCCCCCCC [trioctylammonium octanoate]; 1.4348
CCCCCC(=O)[O-].CCCCCCCC[NH+](CCCCCCCC)CCCCCCCC [trioctylammonium hexanoate]; 1.4336
CCCC(=O)[O-].CCCCCC[NH+](CCCCCC)CCCCCC [trihexylammonium butanoate]; 1.4262

###

We begin with a simple list: items and their reported refractive index.
Test: refractive index (Na D-line) (dimensionless)
Conditions: 298.15 K; 101.33 kPa; Liquid; Standard Abbe refractometry
TEST_READOUT: refractive index

CCCCCC(=O)[O-].CCCCCC[NH+](CCCCCC)CCCCCC [trihexylammonium hexanoate]; 1.4412
CCCC(=O)[O-].CCCCCCCC[NH+](CCCCCCCC)CCCCCCCC [trioctylammonium butanoate]; 1.4456
CCCCCCCC(=O)[O-].CCCCCC[NH+](CCCCCC)CCCCCC [trihexylammonium octanoate]; 1.4441
CCCC(=O)[O-].CCCCCC[NH+](CCCCCC)CCCCCC [trihexylammonium butanoate]; 1.44
CCCCCCCC(=O)[O-].CCCCCCCC[NH+](CCCCCCCC)CCCCCCCC [trioctylammonium octanoate]; 1.4484
CCCCCC(=O)[O-].CCCCCCCC[NH+](CCCCCCCC)CCCCCCCC [trioctylammonium hexanoate]; 1.4469

###

Conditions: 333.15 K; 101.33 kPa; Liquid; Vibrating tube method
Numbers after ± are expanded uncertainties.
We begin with a simple list: items and their reported mass density.
TEST_READOUT: mass density

CCCCCCCC(=O)[O-].CCCCCCCC[NH+](CCCCCCCC)CCCCCCCC [trioctylammonium octanoate]; 821.95 ± 4 kg/m3
CCCCCC(=O)[O-].CCCCCC[NH+](CCCCCC)CCCCCC [trihexylammonium hexanoate]; 820.72 ± 3.9 kg/m3
CCCCCC(=O)[O-].CCCCCCCC[NH+](CCCCCCCC)CCCCCCCC [trioctylammonium hexanoate]; 820.12 ± 3.9 kg/m3
CCCCCCCC(=O)[O-].CCCCCC[NH+](CCCCCC)CCCCCC [trihexylammonium octanoate]; 822.5 ± 4 kg/m3
CCCC(=O)[O-].CCCCCC[NH+](CCCCCC)CCCCCC [trihexylammonium butanoate]; 818.3 ± 3.9 kg/m3
CCCC(=O)[O-].CCCCCCCC[NH+](CCCCCCCC)CCCCCCCC [trioctylammonium butanoate]; 817.51 ± 3.9 kg/m3

###

Assay: refractive index (Na D-line) (dimensionless)
Settings: 328.15 K; 101.33 kPa; Liquid; Standard Abbe refractometry
TEST_READOUT: refractive index

CCCCCC(=O)[O-].CCCCCC[NH+](CCCCCC)CCCCCC [trihexylammonium hexanoate]; 1.4297
CCCCCCCC(=O)[O-].CCCCCCCC[NH+](CCCCCCCC)CCCCCCCC [trioctylammonium octanoate]; 1.4369
CCCC(=O)[O-].CCCCCCCC[NH+](CCCCCCCC)CCCCCCCC [trioctylammonium butanoate]; 1.4339
CCCCCCCC(=O)[O-].CCCCCC[NH+](CCCCCC)CCCCCC [trihexylammonium octanoate]; 1.4322
CCCCCC(=O)[O-].CCCCCCCC[NH+](CCCCCCCC)CCCCCCCC [trioctylammonium hexanoate]; 1.4353
CCCC(=O)[O-].CCCCCC[NH+](CCCCCC)CCCCCC [trihexylammonium butanoate]; 1.4282
